Kindly state RLU for each of the entries shown.
- measured.on: T1, human CD71 extracellular domain (human, UniProt P02786 89-760, biotinylated)
- T1 construct: also called hCD71; CD71-ECD
- assay.method.text: primary ELISA; also: test concentration or dose not given here

Data request: Give the measured RLU of CD71-binding FN3 domain of SEQ ID NO: 485 (designed binder) MLPAPKNLVVSRVTEDSARLSWTAPDAAFDSFFIGYLEPQPPGEAIHLWVPGSERSYDLTGLKPGTEYNVTIQGVKGGFPSLPLLAKFTT .
Data returned: 2.47e+06 RLU

Data request: Give the measured RLU of CD71-binding FN3 domain of SEQ ID NO: 503 (designed binder) MLPAPKNLVVSRVTEDSARLSWTAPDAAFDSFEISYFETSWHGEAIVLTVLGSERSYDLTGLKPGTEYRVYIGGVKGGSWSQPLSAIFTT .
Data returned: 2.35e+06 RLU

Data request: Give the measured RLU of CD71-binding FN3 domain of SEQ ID NO: 479 (designed binder) MLPAPKNLVVSRVTEDSARLSWTAPDAAFDSFFIGYLEPQPPGEAINLWVPGSERSYDLTGLKPGTEYNVTIQGVKGGFPSTPLFAGFTT .
Data returned: 2.66e+06 RLU

Data request: Give the measured RLU of CD71-binding FN3 domain of SEQ ID NO: 535 (designed binder) MLPAPKNLVVSRVTEDSARLSWTAPDAAFDSFFIGYLEPQPPGEAIHLQVPGSERSYDLTGLKPGTEYNVTIQGVKGGFPSDPLVAKFTT .
Data returned: 4.29e+06 RLU
